All values here come from patent US20230357429A1.

Biological target: T1, Peptide-36 (cysteine pairing not given here; also: biotinylated, site not given here)
T1 peptide: VDFCYQYGWPICSR
Experiment: ELISA, Fab on captured biotin-peptide
Where no end group is shown, it is not given here.
Readout kind: pEC50
Answers are plain numbers, as −log10 of the molar value.

Below, each entry is followed by its recorded pEC50 result.
- Binder: "TBD-1 wt (Fab, V domains shown, Fab; the heavy chain entry is VH-CH1; also called wild-type anti-TROP2 Fab (hRS7); TROP2 Fab) VH: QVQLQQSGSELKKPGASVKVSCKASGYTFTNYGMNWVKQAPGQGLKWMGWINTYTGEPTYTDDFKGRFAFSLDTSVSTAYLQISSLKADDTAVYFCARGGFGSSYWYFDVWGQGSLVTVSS VL: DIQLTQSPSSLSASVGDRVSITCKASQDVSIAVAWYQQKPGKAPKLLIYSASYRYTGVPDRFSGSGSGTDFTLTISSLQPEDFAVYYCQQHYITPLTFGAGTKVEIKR"
  Value measured: 7.38
- Binder: "TBD-21 (HC F108A) (Fab, V domains shown, Fab; also called HC F108A mutant) VH: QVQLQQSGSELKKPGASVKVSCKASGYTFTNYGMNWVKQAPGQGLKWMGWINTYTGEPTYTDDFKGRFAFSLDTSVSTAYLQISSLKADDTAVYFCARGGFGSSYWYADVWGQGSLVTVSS VL: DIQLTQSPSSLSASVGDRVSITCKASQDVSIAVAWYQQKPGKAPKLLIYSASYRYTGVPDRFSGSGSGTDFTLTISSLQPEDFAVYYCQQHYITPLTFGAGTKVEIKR"
  Value measured: 7.57
- Binder: "TBD-11 (HC R98A) (Fab, V domains shown, Fab; also called HC R98A mutant) VH: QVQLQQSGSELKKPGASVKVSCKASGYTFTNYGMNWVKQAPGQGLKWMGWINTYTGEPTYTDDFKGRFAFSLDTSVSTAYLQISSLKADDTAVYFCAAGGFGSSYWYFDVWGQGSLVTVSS VL: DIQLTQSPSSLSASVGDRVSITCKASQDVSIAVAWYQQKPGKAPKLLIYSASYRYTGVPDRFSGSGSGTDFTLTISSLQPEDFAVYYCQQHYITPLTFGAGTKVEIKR"
  Value measured: 7.22
- Binder: "TBD-6 (LC I93A) (Fab, V domains shown, Fab; also called LC I93A mutant) VH: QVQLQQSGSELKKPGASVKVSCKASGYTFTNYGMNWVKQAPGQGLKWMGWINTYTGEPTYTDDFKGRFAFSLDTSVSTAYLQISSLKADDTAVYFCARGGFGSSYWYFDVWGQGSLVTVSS VL: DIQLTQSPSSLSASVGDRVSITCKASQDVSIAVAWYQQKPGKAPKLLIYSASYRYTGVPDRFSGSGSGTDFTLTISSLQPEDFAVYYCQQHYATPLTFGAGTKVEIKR"
  Value measured: 7.62
- Binder: "TBD-22 (HC D109A) (Fab, V domains shown, Fab; also called HC D109A mutant) VH: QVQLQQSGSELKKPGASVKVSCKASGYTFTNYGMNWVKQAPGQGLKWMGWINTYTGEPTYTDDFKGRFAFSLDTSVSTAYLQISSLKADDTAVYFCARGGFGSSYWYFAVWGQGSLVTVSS VL: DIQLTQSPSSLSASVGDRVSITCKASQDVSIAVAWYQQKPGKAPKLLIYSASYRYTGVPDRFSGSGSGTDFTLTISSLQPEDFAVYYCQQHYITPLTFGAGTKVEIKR"
  Value measured: 8.66

Then there is this binder:
Value of measured pEC50 for the entry TBD-17 (HC S104A) (Fab, V domains shown, Fab; also called HC S104A mutant) VH: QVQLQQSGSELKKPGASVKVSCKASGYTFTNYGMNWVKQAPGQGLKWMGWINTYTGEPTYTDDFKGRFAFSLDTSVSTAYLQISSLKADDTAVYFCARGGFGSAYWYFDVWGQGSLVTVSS VL: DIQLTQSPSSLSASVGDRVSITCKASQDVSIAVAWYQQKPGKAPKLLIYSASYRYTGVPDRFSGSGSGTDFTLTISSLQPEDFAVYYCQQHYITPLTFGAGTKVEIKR : 7.52
